Measured % Inhib. of IL-5 production (TSLP treated human PBMC + IL-2 + IL-25), Expt. 3 values are reported for all entries that follow.
Target: human IL-17RA on cells (human PBMC; human foreskin fibroblasts) (human, UniProt Q96F46 33-866)
Assay: cell-based or functional assay
# include the unit after the value

Reference set (2 entries):
1. 3.1404.1 (antibody, IgG2, V domains shown) VH: QVQLVQSGAEVKKPGASVKVSCKASGYTFTRYGISWVRQAPGQGLEWMGWISTYSGNTNYAQKLQGRVTMTTDTSTSTAYMELRSLRSDDTAVYYCARRQLYFDYWGQGTLVTVSS VL: EIVMTQSPATLSVSPGERATLSCRASQSVSSNLAWFQQKPGQAPRPLIYDASTRATGVPARFSGSGSGTDFTLTISSLQSEDFAVYYCQQYDNWPLTFGGGTKVEIK	69%
2. 3.381.1 (antibody, IgG2, V domains shown) VH: QVQLVQSGAEVKKPGASVKVSCKASGYTFTRYGISWVRQAPGQGLEWMGWISAYSGNTNYAQKLQGRVTMTTDTSTSTAYMELRSLRSDDTAVYYCARRQLYFDYWGQGTLVTVSS VL: EIVMTQSPATLSVSPGERVTLSCRASQSVSSNLAWFQQKPGQAPRPLIYDASTRAAGIPARFSGSGSGTDFTLTISSLQSEDFAVYYCQQYDNWPLTFGGGTKVEIK	74%

Lab note: next binder to report on.
Specify reported % Inhib. of IL-5 production (TSLP treated human PBMC + IL-2 + IL-25), Expt. 3 for the binder shown: 4.357.1 (antibody, V domains shown) VH: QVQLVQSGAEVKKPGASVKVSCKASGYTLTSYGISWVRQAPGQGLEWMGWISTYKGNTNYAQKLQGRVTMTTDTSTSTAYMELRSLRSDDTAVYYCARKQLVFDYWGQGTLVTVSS VL: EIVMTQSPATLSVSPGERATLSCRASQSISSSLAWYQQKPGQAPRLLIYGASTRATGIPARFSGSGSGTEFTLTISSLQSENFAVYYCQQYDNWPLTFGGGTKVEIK
11%
